- tested-system: cathepsin G (Homo sapiens)
- Construct: from tissue; host or cells: human white blood cells
- Sequence (P08311 21-244 limits assumed): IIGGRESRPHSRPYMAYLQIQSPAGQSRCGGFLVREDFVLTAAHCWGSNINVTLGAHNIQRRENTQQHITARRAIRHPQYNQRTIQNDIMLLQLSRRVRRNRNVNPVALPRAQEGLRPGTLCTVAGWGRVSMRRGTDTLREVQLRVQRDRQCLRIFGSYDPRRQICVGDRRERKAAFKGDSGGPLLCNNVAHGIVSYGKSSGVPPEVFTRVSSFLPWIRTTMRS
- assay-text: Inhibition of cathepsin G (CTG)
- Assay type: biochemical
- conditions: cathepsin G 50 nM, pH 7.5, 10 minute preincubation, 30° C.; read-out: IC50 CTG (converted)
assay-readout: IC50 (µM)
Output spec: scalar in µM, unitless text.

Looking up CC1=C(C(=O)OC(c2ccccc2)c2ccccc2)N2C(=O)[C@H](Cl)[C@H]2S(=O)(=O)C12CC2(c1ccccc1)c1ccccc1 (single isomer, unassigned) , I see its IC50 listed as 20

Looking up CO[C@H]1C(=O)N2C(C(=O)OCC(Cl)(Cl)Cl)=C(C)C3(CC3(c3ccccc3)c3ccccc3)S(=O)(=O)[C@H]12 (stereo partly drawn) , I see its IC50 listed as 0.403

Looking up CCO[C@H]1C(=O)N2C(C(=O)OCC(Cl)(Cl)Cl)=C(C)C3(CC3(c3ccccc3)c3ccccc3)S(=O)(=O)[C@H]12 (stereo partly drawn) , I see its IC50 listed as 0.32

Looking up CC1=C(C(=O)OC(C)(C)C)N2C(=O)[C@H](Br)[C@H]2S(=O)(=O)C12CC2(c1ccccc1)c1ccccc1 (stereo partly drawn) , I see its IC50 listed as 40

Looking up CCOC(=O)C1CC12C(C)=C(C(=O)OC(c1ccccc1)c1ccccc1)N1C(=O)[C@H](Br)[C@H]1S2(=O)=O (stereo partly drawn) , I see its IC50 listed as 13

Looking up CC1=C(C(=O)OC(c2ccccc2)c2ccccc2)N2C(=O)[C@H](Br)[C@H]2S(=O)(=O)C12CC2(c1ccc(Cl)cc1)c1ccc(Cl)cc1 (single isomer, unassigned) , I see its IC50 listed as 19.4

Looking up CC1=C(C(=O)OC(c2ccccc2)c2ccccc2)N2C(=O)[C@H](Br)[C@H]2S(=O)(=O)C12CC2(c1ccc(F)cc1)c1ccc(F)cc1 (single isomer, unassigned) , I see its IC50 listed as 19

====

- tested-system: trypsin (Bos taurus)
- Construct: from tissue; host or cells: bovine pancreas
- Sequence (P00760 24-246): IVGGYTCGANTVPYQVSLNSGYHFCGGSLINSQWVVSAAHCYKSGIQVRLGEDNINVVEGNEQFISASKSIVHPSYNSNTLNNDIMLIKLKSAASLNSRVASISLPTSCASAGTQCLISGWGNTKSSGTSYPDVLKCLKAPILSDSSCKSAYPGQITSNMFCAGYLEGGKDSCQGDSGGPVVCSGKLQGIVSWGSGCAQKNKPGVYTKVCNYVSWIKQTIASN
- assay-text: Inhibition of trypsin (TRY)
- Assay type: biochemical, bovine
- conditions: trypsin, pH 8.8, 10 minute preincubation, 22° C.; read-out: IC50 TRY (converted)
For each of the compounds below, state its IC50.

Looking up CC1=C(C(=O)N2CCCC2)N2C(=O)[C@H](Br)[C@H]2S(=O)(=O)C12CC2(c1ccccc1)c1ccccc1 (stereo partly shown) [Example 6] , I see its IC50 listed as > 39000 nM

Looking up CCOC(=O)C1CC12C(C)=C(C(=O)OC(c1ccccc1)c1ccccc1)N1C(=O)[C@H](Br)[C@H]1S2(=O)=O (stereo partly shown) [Example 13 (1)] , I see its IC50 listed as 580 nM

Looking up CCO[C@H]1C(=O)N2C(C(=O)OCC(Cl)(Cl)Cl)=C(C)C3(CC3(c3ccccc3)c3ccccc3)S(=O)(=O)[C@H]12 (stereo partly shown) [Example 7] , I see its IC50 listed as > 10000 nM

Looking up CC1=C(C(=O)OC(c2ccccc2)c2ccccc2)N2C(=O)[C@H](Br)[C@H]2S(=O)(=O)C12CC2(C)c1ccccc1 (stereo partly shown) [Example 13 (2)] , I see its IC50 listed as 147 nM

====

- tested-system: aminopeptidase M (Sus scrofa, UniProt P15145)
- Construct: from tissue; host or cells: porcine kidney
- Sequence (P15145 1-963): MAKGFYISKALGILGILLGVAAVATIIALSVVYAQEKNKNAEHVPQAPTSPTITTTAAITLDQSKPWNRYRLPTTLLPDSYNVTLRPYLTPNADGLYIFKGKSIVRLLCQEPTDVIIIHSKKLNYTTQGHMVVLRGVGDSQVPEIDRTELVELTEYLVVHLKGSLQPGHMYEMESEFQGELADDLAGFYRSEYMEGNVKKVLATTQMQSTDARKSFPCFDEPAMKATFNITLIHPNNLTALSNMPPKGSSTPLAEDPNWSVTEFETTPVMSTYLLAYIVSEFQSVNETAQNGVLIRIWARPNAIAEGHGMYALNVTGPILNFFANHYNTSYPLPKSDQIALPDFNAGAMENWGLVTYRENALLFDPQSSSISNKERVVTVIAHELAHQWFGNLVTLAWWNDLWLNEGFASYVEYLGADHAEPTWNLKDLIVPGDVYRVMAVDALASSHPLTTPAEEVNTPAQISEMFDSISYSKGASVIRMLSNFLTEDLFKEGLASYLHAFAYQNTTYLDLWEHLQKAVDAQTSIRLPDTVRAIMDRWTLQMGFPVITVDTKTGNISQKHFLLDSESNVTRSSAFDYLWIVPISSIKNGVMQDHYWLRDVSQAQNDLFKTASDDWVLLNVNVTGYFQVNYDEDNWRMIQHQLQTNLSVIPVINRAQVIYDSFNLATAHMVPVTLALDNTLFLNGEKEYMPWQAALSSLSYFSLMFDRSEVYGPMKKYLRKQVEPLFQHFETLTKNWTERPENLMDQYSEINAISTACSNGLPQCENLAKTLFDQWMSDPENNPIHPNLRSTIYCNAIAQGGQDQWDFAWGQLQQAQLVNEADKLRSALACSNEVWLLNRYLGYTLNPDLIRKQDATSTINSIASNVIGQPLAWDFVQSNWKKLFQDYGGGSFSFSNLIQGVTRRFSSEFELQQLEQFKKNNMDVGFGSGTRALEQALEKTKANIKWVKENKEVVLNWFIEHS
- assay-text: Inhibition of aminopeptidase M (ATM)
- Type: biochemical, porcine
- conditions: aminopeptidase M, pH 7.5, 10 minute preincubation, 22° C.; read-out: IC50 ATM
- Method: HLE, CTG, PPE and CTD were tested at 30° C. and the others were TRY, trypsin; THR, thrombin; PTH, plasmin; CTC, cathepsin C; ATM, aminopeptidase M; CTG, cathespin G; CTD, cathespin D; PPE, porcine Enzyme: Purified aminopeptidase M from porcine kidney Reaction Mixture: 50 mM Tricine buffer (pH 7.5), 500 mM NaCl, 10% DMSO, 2.0 mM Substrate. Except for Cathepsin D, the enzyme activities were determined by monitoring the increase in absorbance at 410 nm caused by the hydrolysis of chromogenic substrates. […]
pIC50: −log10 of the molar value.
For each of the molecules below, state its pIC50.

Looking up CCO[C@H]1C(=O)N2C(C(=O)OCC(Cl)(Cl)Cl)=C(C)C3(CC3(c3ccccc3)c3ccccc3)S(=O)(=O)[C@H]12 (stereo partly drawn) , I see its pIC50 listed as < 5.00

Looking up CC1=C(C(=O)OC(C)(C)C)N2C(=O)[C@H](Br)[C@H]2S(=O)(=O)C12CC2(c1ccccc1)c1ccccc1 (stereo partly drawn) , I see its pIC50 listed as < 4.40

Looking up CC1=C(C(=O)OC(c2ccccc2)c2ccccc2)N2C(=O)[C@H](Br)[C@H]2S(=O)(=O)C12CC2(c1ccccc1)c1ccccc1 (single isomer, unassigned) , I see its pIC50 listed as < 4.40

Looking up CC1=C(C(=O)OC(c2ccccc2)c2ccccc2)N2C(=O)[C@H](Cl)[C@H]2S(=O)(=O)C12CC2(c1ccccc1)c1ccccc1 (single isomer, unassigned) , I see its pIC50 listed as < 4.22

Looking up CO[C@H]1C(=O)N2C(C(=O)N3CCCCC3)=C(C)C3(CC3(c3ccccc3)c3ccccc3)S(=O)(=O)[C@H]12 (stereo partly drawn) , I see its pIC50 listed as < 5.00

Looking up CC1=C(C(=O)N2CCCC2)N2C(=O)[C@H](Br)[C@H]2S(=O)(=O)C12CC2(c1ccccc1)c1ccccc1 (stereo partly drawn) , I see its pIC50 listed as < 5.01
